Target: T1, full length human MSR1 with a C-terminal Myc tag, on HEK293.Myc.hMSR1 cells (human, UniProt P21757 1-451); further: test concentration or dose not given here
T1 sequence (looked up): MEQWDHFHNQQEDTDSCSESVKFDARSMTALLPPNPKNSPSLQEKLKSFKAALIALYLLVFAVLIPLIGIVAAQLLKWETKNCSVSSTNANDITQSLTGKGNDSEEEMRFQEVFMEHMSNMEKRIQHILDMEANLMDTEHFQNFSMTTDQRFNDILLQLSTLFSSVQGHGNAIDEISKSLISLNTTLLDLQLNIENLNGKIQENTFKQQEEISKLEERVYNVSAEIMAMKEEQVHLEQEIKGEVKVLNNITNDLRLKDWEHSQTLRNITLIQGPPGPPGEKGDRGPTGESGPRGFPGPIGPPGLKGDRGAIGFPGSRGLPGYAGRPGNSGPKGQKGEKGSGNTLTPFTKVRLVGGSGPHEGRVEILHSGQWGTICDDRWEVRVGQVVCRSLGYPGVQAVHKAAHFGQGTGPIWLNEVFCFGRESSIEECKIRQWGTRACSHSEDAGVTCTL
Test: cell-based or functional assay
As shown below, each of these binders has a reported % Inhibition of Dil-Oxidized LDL uptake value.
Expressed in %, but write only the number.

| binder | reported_value |
| --- | --- |
| H1M21231N (antibody, V domains shown) VH: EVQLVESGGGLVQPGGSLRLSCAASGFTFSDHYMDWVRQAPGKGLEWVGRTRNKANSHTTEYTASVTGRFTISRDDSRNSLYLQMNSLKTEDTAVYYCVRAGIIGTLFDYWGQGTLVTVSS VL: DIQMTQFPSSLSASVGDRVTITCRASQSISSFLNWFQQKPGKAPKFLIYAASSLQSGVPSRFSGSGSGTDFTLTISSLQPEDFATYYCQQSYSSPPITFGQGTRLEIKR | 79 |
| H2aM21227N (antibody, mouse IgG2a, V domains shown) VH: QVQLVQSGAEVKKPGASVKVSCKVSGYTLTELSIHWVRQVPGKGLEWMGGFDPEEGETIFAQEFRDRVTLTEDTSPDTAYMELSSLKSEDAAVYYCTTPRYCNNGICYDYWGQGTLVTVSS VL: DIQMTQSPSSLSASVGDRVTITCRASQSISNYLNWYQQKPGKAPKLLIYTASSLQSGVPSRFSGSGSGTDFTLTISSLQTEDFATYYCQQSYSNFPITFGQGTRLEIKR | 90 |
| H1H27732P-N297Q (antibody, human IgG1, V domains shown, human IgG1 Fc with N297Q) VH: QLQLQESGPGLVKPSETLSLTCTVSGGSISSSTYYWGWIRQPPGKGLEWIGSFYYSGSTYYNPSLKSRVTISVGTSKNQFSLKLSSVTAADTAVYFCARGGLLGRPFVIWGQGTMVTVSS VL: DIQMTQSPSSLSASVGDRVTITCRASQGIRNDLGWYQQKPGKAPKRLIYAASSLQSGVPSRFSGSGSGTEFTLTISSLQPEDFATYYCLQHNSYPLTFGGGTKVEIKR | 86 |
| H2aM21229N (antibody, mouse IgG2a, V domains shown, mouse IgG2a Fc) VH: EVQLVESGGGLVKPGGSLRLSCAASGFTFSRYSMNWVRQAPGKGLEWVSSISSSSSYIYYGDTVKGRFTISRDNAKKSLYLQMNSLRAEDTAVYYCVRDRGQLVLYFDYWGQGTLVTVSS VL: DIQMTQSPASLSTSIRDRVTITCRASLSISSFLNWFQQRPGKAPKLLIYVASNLQSGVPSRFSDSGSGTDFTLTISSLQPEDFATYYCQQNYSTPPITFGQGTRLEIK | 26 |
| H1H21234N (antibody, human IgG1, V domains shown, original human IgG1 Fc) VH: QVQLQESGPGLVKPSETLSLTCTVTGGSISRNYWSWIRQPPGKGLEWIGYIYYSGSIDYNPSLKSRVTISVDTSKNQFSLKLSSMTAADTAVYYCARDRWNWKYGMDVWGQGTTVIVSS VL: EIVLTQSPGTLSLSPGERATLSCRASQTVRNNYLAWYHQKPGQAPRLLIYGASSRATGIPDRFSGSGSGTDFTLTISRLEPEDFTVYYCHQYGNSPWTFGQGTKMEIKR | 64 |
| H1H21234N-N297Q (antibody, human IgG1, V domains shown, human IgG1 Fc with N297Q point mutation (EU numbering)) VH: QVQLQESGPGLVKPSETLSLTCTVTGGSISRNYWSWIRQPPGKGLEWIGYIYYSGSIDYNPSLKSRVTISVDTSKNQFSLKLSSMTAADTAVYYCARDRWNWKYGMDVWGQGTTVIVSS VL: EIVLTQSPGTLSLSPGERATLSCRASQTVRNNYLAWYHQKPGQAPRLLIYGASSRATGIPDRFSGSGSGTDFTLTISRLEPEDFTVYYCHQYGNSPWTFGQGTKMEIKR | 52 |

What value of % Inhibition of Dil-Oxidized LDL uptake has been recorded for this entry: H2bM21234N (antibody, V domains shown) VH: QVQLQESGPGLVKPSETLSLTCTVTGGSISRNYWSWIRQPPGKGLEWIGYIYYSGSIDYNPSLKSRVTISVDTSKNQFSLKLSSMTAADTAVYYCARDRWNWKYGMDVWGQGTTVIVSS VL: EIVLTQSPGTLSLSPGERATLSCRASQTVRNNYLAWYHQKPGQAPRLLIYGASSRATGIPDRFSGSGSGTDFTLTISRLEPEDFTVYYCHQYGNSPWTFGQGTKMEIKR
61

What value of % Inhibition of Dil-Oxidized LDL uptake has been recorded for this entry: H1H27731P-N297Q (antibody, V domains shown, human IgG1 Fc with N297Q) VH: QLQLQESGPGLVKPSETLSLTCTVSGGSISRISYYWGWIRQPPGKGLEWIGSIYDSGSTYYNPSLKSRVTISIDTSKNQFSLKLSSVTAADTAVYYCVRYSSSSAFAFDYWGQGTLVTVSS VL: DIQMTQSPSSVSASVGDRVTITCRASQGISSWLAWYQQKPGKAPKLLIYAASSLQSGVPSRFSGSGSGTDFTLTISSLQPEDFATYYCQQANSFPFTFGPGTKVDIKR
62

What value of % Inhibition of Dil-Oxidized LDL uptake has been recorded for this entry: H1H27734P-N297Q (antibody, human IgG1, V domains shown, human IgG1 Fc with N297Q) VH: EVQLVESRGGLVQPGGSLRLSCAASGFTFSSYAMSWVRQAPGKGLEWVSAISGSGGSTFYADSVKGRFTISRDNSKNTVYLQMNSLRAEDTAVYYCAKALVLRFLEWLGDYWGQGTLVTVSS VL: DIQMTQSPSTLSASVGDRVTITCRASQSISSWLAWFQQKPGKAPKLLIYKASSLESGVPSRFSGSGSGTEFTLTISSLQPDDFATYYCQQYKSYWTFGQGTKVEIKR
22

What value of % Inhibition of Dil-Oxidized LDL uptake has been recorded for this entry: H1H27739P-N297Q (antibody, human IgG1, V domains shown, human IgG1 Fc with N297Q) VH: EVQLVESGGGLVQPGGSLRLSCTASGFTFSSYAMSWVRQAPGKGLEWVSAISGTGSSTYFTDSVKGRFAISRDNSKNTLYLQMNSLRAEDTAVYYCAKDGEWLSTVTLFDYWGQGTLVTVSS VL: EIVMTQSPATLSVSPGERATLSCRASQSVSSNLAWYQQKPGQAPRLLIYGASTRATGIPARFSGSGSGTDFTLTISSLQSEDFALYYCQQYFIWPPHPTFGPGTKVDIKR
55

What value of % Inhibition of Dil-Oxidized LDL uptake has been recorded for this entry: H2aM21235N (antibody, mouse IgG2a, V domains shown) VH: EVQLVESGGGLVQPGGSLRLSCAASGFTFSDHYMDWVRQAPGKGLEWVGRTRNKANSYTTEYAASVSGRFTISRDDSKNSLYLQMNSLKTEDTAVYYCTRAGIIGTLFDYWGQGTLVTVSS VL: DIQMTQSPSSLSASVGDRVTITCRASQIIGRYLNWFQQKPGKVPKLLIYAASSLQRGVPSRFSGSGSGTDFTLTISSLQPEDFATYYCQQSYNTPPITFGQGTRLEIKR
64

Where do the numbers come from? From patent US20190367631A1.
